System: E. coli strain W3110
Assay: Synergy assays: Biolog chemical sensitivity panels with Group IB metal, coefficient of drug interaction (CDI) from relative growth
Format: cell-based
Conditions: Gold section of Table 5; second of three gold concentrations (μM, value not given); biocide concentration 4 of 4
result-type: CDI (coefficient of drug interaction)

See these solved cases before continuing.
[
  {
    "compound": "C[n+]1ccc(-c2cc[n+](C)cc2)cc1",
    "result": 0.78
  },
  {
    "compound": "O=[N+]([O-])c1ncc[nH]1",
    "result": "Tox"
  },
  {
    "compound": "CN(C)C(=O)/N=N/C(=O)N(C)C [diamide]",
    "result": "Tox"
  },
  {
    "compound": "CCn1cc(C(=O)O)c(=O)c2ccc(C)nc21",
    "result": "Tox"
  }
]

Would you mind listing CDI (coefficient of drug interaction) for each of the following compounds?
1. Nc1n[nH]c(N)n1
2. CN[C@@H]1[C@@H](O)[C@@H](O[C@@H]2[C@@H](O)[C@H](O[C@H]3O[C@H]([C@@H](C)O)[C@@H](O)[C@H](O)[C@H]3N)[C@@H](N)C[C@H]2N)OC[C@]1(C)O
3. CCCCC(CC)CNC(=N)NC(=N)NCCCCCCNC(=N)NC(=N)NCC(CC)CCCC (centres unmarked)
4. CN[C@H]1C[C@@H](N)[C@H](O)[C@@H](O[C@@H]2O[C@H](CO)[C@H](O)[C@@H]3OC4(O[C@H]23)O[C@H]([C@@H](N)CO)[C@H](O)[C@H](O)[C@H]4O)[C@@H]1O (some centres unmarked)

Tox
1.02
Tox
Tox

----------
System: E. coli strain W3110
Assay: Synergy assays: Biolog chemical sensitivity panels with Group IB metal, coefficient of drug interaction (CDI) from relative growth
Type: cell-based
Conditions: Gold (μM), third of 3 gold concentrations; biocide concentration 3 of 4
Kindly supply the reported CDI (coefficient of drug interaction), gold + biocide values for the records listed here.
Answers are plain numbers.

See these solved cases before continuing.
[
  {
    "molecule": "NC(CO)C(=O)NO (racemic) [D,L-serine hydroxamate]",
    "assay-system": "E. coli strain W3110",
    "measured-number": 1.00
  },
  {
    "molecule": "O=C(O)/C=C/c1ccccc1 [Cimamic acid]",
    "assay-system": "E. coli strain W3110",
    "measured-number": 0.96
  }
]

Which CDI (coefficient of drug interaction), gold + biocide value belongs to NC(CCC(=O)NO)C(=O)O [L-glutamic-γ-hydroxamate] ?
1.02

----------
Test system: E. coli strain W3110
Assay: Synergy assays: Biolog chemical sensitivity panels with Group IB metal, coefficient of drug interaction (CDI) from relative growth
Type: cell-based
Conditions: Gold (μM), first of 3 gold concentrations; biocide concentration 2 of 4
Kindly supply the reported CDI (coefficient of drug interaction), gold + biocide values for the records listed here.
Answers are plain numbers.

See these solved cases before continuing.
[
  {
    "compound": "CC1(C)S[C@@H]2[C@H](NC(=O)[C@H](NC(=O)N3CCNC3=O)c3ccccc3)C(=O)N2[C@H]1C(=O)O",
    "measured-number": 1.01
  },
  {
    "compound": "CSCCC(N)C(=O)NO (racemic) [D,L-methionine hydroxamate]",
    "measured-number": 1.10
  },
  {
    "compound": "O=[N+]([O-])c1ccc(O)c([N+](=O)[O-])c1",
    "measured-number": 1.02
  },
  {
    "compound": "NCC(=O)NO [glycine hydroxamate]",
    "measured-number": 0.95
  },
  {
    "compound": "NC(CO)C(=O)NO (racemic) [D,L-serine hydroxamate]",
    "measured-number": 0.95
  }
]

Would you mind listing CDI (coefficient of drug interaction), gold + biocide for each of the following compounds?
1. NC(CCC(=O)NO)C(=O)O [L-glutamic-γ-hydroxamate]
2. O=C(O)/C=C/c1ccccc1
3. N.N.N.N.N.N.N.N.N.N.N.N.N.N.[Cl-].[Cl-].[Cl-].[Cl-].[Cl-].[Cl-].[O-2].[O-2].[Ru+3].[Ru+3].[Ru+4]

[1.03, 1.09, 0.94]

// data source = patent US11382328B2
